# Test system: Vero
# TEST_PROTOCOL: Cytotoxicity against african green monkey Vero cells after 72 hrs by MTT assay
# Type: cell-based
# MEASUREMENT_SETUP: Chlorocebus sabaeus
Each item that follows carries a reported IC50.
REPORTED_ENDPOINT: IC50

In [3]: df
Out[3]:
                                   compound  system_tested  observed_measurement
0  COc1cc2c(cc1OC)C1=NN(C(=O)Nc3ccc(Cl)cc3)C(c3ccncc3)C1C2 (centres undefined)           Vero              > 139 µM
1  COc1cc2c(cc1OC)C1=NN(C(=O)Nc3ccc(Cl)cc3)C(c3ccccc3)C1C2 (centres undefined)           Vero              > 139 µM
2  COc1cc2c(cc1OC)C1=NN(C(=O)Nc3ccc(Cl)cc3)C(c3ccc(F)cc3)C1C2 (centres undefined)           Vero              > 134 µM
3                           NNC(=O)c1ccncc1           Vero              > 456 µM
